# System: Echinochloa crus-galli (ECHCG)
# Assay Explanation: Herbicidal post-emergence action
# Assay type: in vivo
# Measurement Setup: 1280 g/ha, assessed after ca. 3 weeks
Experimental Endpoint: Post-emergence activity against ECHCG (%)
Value expressed in %; do not type the unit.

Example entries begin here.
>>> df
                                   compound  readout_number
0  C#CCOC(=O)CC1CCC(=O)N1Cc1cccc(F)c1F (racemic) [Example I-023]              90
1  CC1CC(=O)C(C(=O)CC2CCC(=O)N2Cc2cccc(F)c2F)C(=O)C1 (racemic) [Example I-180]              90
2  O=C(O)CC1CCC(=O)N1Cc1cccc(Cl)c1F (racemic) [Example I-001]              90

IN: Which Post-emergence activity against ECHCG value belongs to O=C(CC1CCC(=O)N1Cc1cccc(F)c1F)OCCOc1ccc(Cl)cc1 (racemic) [Example I-033] ?
OUT: 80

IN: Can you check COC(=O)CC1CCC(=O)N1Cc1cccc(F)c1F (racemic) [Example I-008] next?
OUT: 90

IN: Can you check COC(=O)[C@H](Cc1c[nH]cn1)NC(=O)CC1CCC(=O)N1Cc1cccc(F)c1F (single isomer, unassigned) [Example I-050] next?
OUT: 80

IN: Can you check C=CCCOC(=O)CC1CCC(=O)N1Cc1cccc(F)c1F (racemic) [Example I-026] next?
OUT: 80

IN: Can you check CC[C@@H](C)[C@@H](NC(=O)CC1CCC(=O)N1Cc1cccc(F)c1F)C(=O)O (single isomer, unassigned) [Example I-043] next?
OUT: 80

IN: Can you check O=C(CC1CCC(=O)N1Cc1cccc(F)c1F)NS(=O)(=O)C(F)(F)F (racemic) [Example I-052] next?
OUT: 80

IN: Can you check O=C(O)CC1CCC(=O)N1Cc1cccc(F)c1F (stereo not drawn) [Example I-003] next?
OUT: 90

====

# System: Echinochloa crus-galli (ECHCG)
# Assay Explanation: Herbicidal post-emergence action
# Format: in vivo
# Measurement Setup: 1280 g/ha, assessed after ca. 3 weeks
Experimental Endpoint: Post-emergence activity against ECHCG
Provide the measurement as a number trailed by its unit.

Example entries begin here.
>>> print(df.to_string())
                                   compound  result
0  O=C(CC1CCC(=O)N1Cc1cccc(F)c1F)OCCS(=O)(=O)c1ccccc1 (racemic) [Example I-032]     90%
1  COCC(=O)CC(=O)CNC(=O)CC1CCC(=O)N1Cc1cccc(F)c1F (racemic) [Example I-006]    100%
2  COC(=O)C(C(=O)CC1CCC(=O)N1Cc1cccc(F)c1F)C(=O)OC (racemic) [Example I-176]     90%

IN: Which Post-emergence activity against ECHCG value belongs to O=C(CC1CCC(=O)N1Cc1cccc(F)c1F)NS(=O)(=O)C(F)F (racemic) [Example I-074] ?
OUT: 80%

IN: Can you check O=C(CC1CCC(=O)N1Cc1cccc(F)c1F)OC1CCCC1 (racemic) [Example I-017] next?
OUT: 90%

IN: Can you check O=C(CC1CCC(=O)N1Cc1cccc(F)c1F)OCCOc1ccc(F)cc1 (racemic) [Example I-007] next?
OUT: 90%

IN: Can you check CC(C)C(C)OC(=O)CC1CCC(=O)N1Cc1cccc(F)c1F (racemic) [Example I-036] next?
OUT: 90%

IN: Can you check CC1(C)OC(=O)C(C(=O)CC2CCC(=O)N2Cc2cccc(F)c2F)C(=O)O1 (racemic) [Example I-186] next?
OUT: 80%

IN: Can you check C=CCNC(=O)CC1CCC(=O)N1Cc1cccc(F)c1F (racemic) [Example I-059] next?
OUT: 80%

IN: Can you check COC(=O)CN(C)C(=O)CC1CCC(=O)N1Cc1cccc(F)c1F (racemic) [Example I-053] next?
OUT: 80%

IN: Can you check CC(C)(C)COC(=O)CC1CCC(=O)N1Cc1cccc(F)c1F (racemic) [Example I-018] next?
OUT: 90%

====

# Tested on: Echinochloa crus-galli (ECHCG)
# Assay Explanation: Herbicidal post-emergence action
# Format: in vivo
# Measurement Setup: 1280 g/ha, assessed after ca. 3 weeks
Catalogue of compounds with associated Post-emergence activity against ECHCG
Value expressed in %; do not type the unit.

Example entries begin here.
>>> print(df.to_string())
                                   compound                  experimental_endpoint  readout_number
0  O=C(CC1CCC(=O)N1Cc1cccc(F)c1F)OCCSc1ccc(Cl)cc1 (racemic) [Example I-038]  Post-emergence activity against ECHCG              90
1  CC[C@H](C)[C@H](NC(=O)CC1CCC(=O)N1Cc1cccc(F)c1F)C(=O)O (single isomer, unassigned) [Example I-005]  Post-emergence activity against ECHCG             100
2  CS(=O)(=O)NC(=O)CC1CCC(=O)N1Cc1cccc(F)c1F (racemic) [Example I-012]  Post-emergence activity against ECHCG              90
3  CN(C)NC(=O)CC1CCC(=O)N1Cc1cccc(F)c1F (racemic) [Example I-058]  Post-emergence activity against ECHCG              80
4  Cc1ccc(CN2C(=O)CCC2CC(=O)O)c(F)c1F (racemic) [Example I-035]  Post-emergence activity against ECHCG              90

Attention now turns to another entry.
IN: // lookup Post-emergence activity against ECHCG | system=Echinochloa crus-galli (ECHCG) | key= COc1ccc(OCCOC(=O)CC2CCC(=O)N2Cc2cccc(F)c2F)cc1 (racemic) [Example I-031]
OUT: 90
